Please respond with reported IC50 for every item in the list.
system under test: ratAChE (Rattus norvegicus)
Construct: AChE from 5% rat cortex homogenate or human erythrocytes (Sigma Co.); from tissue; host or cells: 5% rat cortex homogenate
Sequence (P37136 32-614): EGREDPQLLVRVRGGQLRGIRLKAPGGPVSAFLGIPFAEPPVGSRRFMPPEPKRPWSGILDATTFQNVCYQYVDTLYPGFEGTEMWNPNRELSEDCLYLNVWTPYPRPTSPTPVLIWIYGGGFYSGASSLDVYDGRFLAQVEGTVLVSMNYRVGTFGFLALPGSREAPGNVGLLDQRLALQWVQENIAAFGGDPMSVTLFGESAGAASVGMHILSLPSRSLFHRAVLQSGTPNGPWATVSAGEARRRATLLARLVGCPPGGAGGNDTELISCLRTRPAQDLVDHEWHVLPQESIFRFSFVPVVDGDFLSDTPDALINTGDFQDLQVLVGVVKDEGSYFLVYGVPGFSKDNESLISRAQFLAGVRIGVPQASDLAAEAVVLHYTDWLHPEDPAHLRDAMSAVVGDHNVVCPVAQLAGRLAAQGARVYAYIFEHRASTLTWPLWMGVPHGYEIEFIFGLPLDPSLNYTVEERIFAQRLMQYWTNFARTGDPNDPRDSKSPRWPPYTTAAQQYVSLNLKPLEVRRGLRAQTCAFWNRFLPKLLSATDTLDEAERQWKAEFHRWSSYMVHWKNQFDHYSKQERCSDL
run description: biochemical
experimental parameters: from 5% rat cortex homogenate; read-out: IC50 ± SD ratAChE
Don't forget the unit after the value.

// recorded IC50 for O=C1CC(c2ccc(O)cc2)Oc2cc(OCCCCN3CCc4ccccc4C3)cc(O)c21 (centres unmarked) : 5.8 µM

// recorded IC50 for O=c1cc(-c2ccc(OCCCN3CCC(c4ccccc4)CC3)cc2)oc2cc(OCCCN3CCC(c4ccccc4)CC3)cc(O)c12 [Compound 10d] : 6.4 µM

// recorded IC50 for CCN(CCCCCOc1ccc(-c2cc(=O)c3c(O)cc(OCCCCCN(CC)Cc4ccccc4)cc3o2)cc1)Cc1ccccc1 [Compound 10k] : 0.81 µM

// recorded IC50 for O=C1CC(c2ccc(OCCCN3CCc4ccccc4C3)cc2)Oc2cc(OCCCN3CCc4ccccc4C3)cc(O)c21 (centres unmarked) : 10.1 µM

// recorded IC50 for O=c1cc(-c2ccc(OCCCCCCN3CCC(CCCc4ccccc4)CC3)cc2)oc2cc(OCCCCCCN3CCC(CCCc4ccccc4)CC3)cc(O)c12 [Compound 10u] : 6.3 µM

// recorded IC50 for CCN(CCCCCCCCCCCCOc1cc(O)c2c(c1)OC(c1ccc(O)cc1)CC2=O)Cc1ccccc1 (centres unmarked) : 6.5 µM

// recorded IC50 for CCN(CCCCOc1ccc(C2CC(=O)c3c(O)cc(OCCCCN(CC)Cc4ccccc4OC)cc3O2)cc1)Cc1ccccc1OC (centres unmarked) : 0.86 µM

// recorded IC50 for O=C1CC(c2ccc(OCCCCN3CCc4ccccc4C3)cc2)Oc2cc(OCCCCN3CCc4ccccc4C3)cc(O)c21 (centres unmarked) : 5.4 µM

// recorded IC50 for CC1CC(C)CN(CCCCCOc2ccc(-c3cc(=O)c4c(O)cc(OCCCCCN5CC(C)CC(C)C5)cc4o3)cc2)C1 (centres unmarked) [Compound 10p] : 6.2 µM

// recorded IC50 for CCN(CCCCCOc1ccc(-c2cc(=O)c3c(O)cc(OCCCCCN(CC)Cc4ccccc4OC)cc3o2)cc1)Cc1ccccc1OC [Compound 10l] : 0.62 µM

// recorded IC50 for CCN(CCCCCCOc1cc(O)c2c(c1)OC(c1ccc(O)cc1)CC2=O)Cc1ccccc1 (centres unmarked) : 3.3 µM

// recorded IC50 for O=c1cc(-c2ccc(OCCCCN3CCC(Cc4ccccc4)CC3)cc2)oc2cc(OCCCCN3CCC(Cc4ccccc4)CC3)cc(O)c12 [Compound 10j] : 1.8 µM

// recorded IC50 for CCN(CCCOc1ccc(-c2cc(=O)c3c(O)cc(OCCCN(CC)Cc4ccccc4)cc3o2)cc1)Cc1ccccc1 [Compound 10b] : 4.3 µM

// recorded IC50 for CCN(CCCOc1ccc(C2CC(=O)c3c(O)cc(OCCCN(CC)Cc4ccccc4)cc3O2)cc1)Cc1ccccc1 (centres unmarked) : 7.4 µM
